Target: Glutamate NMDA receptor; Grin1/Grin2b (Rattus norvegicus, UniProt P35439+Q00960)
Sequence (Q00960 whole entry, other chains not shown): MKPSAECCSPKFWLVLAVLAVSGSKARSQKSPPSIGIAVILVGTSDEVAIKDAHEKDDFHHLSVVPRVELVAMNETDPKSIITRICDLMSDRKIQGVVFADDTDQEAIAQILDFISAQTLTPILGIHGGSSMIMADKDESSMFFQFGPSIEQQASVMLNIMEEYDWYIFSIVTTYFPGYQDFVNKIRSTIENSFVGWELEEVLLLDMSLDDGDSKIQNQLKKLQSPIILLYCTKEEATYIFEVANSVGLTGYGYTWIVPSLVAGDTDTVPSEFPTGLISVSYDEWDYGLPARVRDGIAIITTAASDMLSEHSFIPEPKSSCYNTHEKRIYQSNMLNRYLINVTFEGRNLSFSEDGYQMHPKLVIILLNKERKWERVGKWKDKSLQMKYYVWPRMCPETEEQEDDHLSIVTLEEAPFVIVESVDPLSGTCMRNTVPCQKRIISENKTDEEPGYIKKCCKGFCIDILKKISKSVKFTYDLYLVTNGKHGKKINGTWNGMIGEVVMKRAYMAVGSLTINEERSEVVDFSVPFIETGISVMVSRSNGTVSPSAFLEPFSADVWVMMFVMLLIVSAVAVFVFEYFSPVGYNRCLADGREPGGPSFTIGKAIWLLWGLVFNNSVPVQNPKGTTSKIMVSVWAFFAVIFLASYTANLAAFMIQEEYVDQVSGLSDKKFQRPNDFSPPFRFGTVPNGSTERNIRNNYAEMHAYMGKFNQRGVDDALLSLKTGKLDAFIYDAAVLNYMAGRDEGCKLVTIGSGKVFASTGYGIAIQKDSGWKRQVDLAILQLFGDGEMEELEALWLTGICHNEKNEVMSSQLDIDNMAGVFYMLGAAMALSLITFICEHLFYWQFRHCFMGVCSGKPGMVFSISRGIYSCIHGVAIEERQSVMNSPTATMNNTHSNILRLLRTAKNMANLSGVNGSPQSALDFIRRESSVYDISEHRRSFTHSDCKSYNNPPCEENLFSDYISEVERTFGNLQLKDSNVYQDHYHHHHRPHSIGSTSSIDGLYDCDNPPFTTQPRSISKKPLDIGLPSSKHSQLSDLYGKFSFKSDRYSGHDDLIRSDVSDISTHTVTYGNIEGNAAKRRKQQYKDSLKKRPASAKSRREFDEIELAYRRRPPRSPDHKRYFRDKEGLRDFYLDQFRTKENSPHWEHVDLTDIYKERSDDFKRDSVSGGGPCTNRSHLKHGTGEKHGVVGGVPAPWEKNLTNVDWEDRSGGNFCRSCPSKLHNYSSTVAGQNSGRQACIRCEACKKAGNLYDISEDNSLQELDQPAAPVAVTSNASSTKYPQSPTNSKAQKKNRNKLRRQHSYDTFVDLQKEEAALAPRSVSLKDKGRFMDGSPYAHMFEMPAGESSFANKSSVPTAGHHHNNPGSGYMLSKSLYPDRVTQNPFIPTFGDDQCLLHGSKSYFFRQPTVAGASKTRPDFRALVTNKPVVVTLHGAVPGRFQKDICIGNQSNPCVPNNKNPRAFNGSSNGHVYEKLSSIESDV
Experiment: Antagonist activity at rat recombinant NR1-NR2B receptor expressed in Xenopus oocytes at holding potential of -40mV by two-electrode voltage-clamp electrophysiology
Type: functional, cell-based, Oocyte
Conditions: read-out: IC50
measured_quantity: IC50 (µM)

Please review the entries below; each comes with its answer.
[[record]]
query_smiles = "COc1cccc(/C=C/c2nc3ccccc3c(=O)n2-c2ccc(C(=O)O)cc2)c1"
data_value = 36

[[record]]
query_smiles = "O=C(O)c1ccc(-n2c(/C=C/c3cccc([N+](=O)[O-])c3)nc3ccc(I)cc3c2=O)cc1"
data_value = 6

[[record]]
query_smiles = "O=C(O)c1ccc(-n2c(/C=C/c3cccc(O)c3)nc3ccccc3c2=O)cc1"
data_value = 30


1 = O=C(O)c1ccc(-n2c(/C=C/c3cccnc3)nc3ccc(I)cc3c2=O)cc1
2 = O=C(O)c1cccc(-n2c(/C=C/c3ccccc3[N+](=O)[O-])nc3ccccc3c2=O)c1
3 = O=C(O)c1ccc(-n2c(/C=C/c3cccc([N+](=O)[O-])c3)nc3cc4ccccc4cc3c2=O)cc1
4 = O=C(O)c1ccc(-n2c(/C=C/c3ccc([N+](=O)[O-])cc3)nc3ccccc3c2=O)cc1
Order the records by IC50, with each subsequent value no larger than the one before. Provide the ranking by listing each label in its place in the requested order.
4, 1, 2, 3

###

Organism: Rattus norvegicus
Assay: Selectivity ratio of IC50 for rat recombinant NR1-NR2A receptor to IC50 for rat recombinant NR1-NR2D receptor
measured_quantity: Ratio IC50

[[record]]
query_smiles = "COC(=O)c1ccc(-n2c(/C=C/c3cccc([N+](=O)[O-])c3)nc3ccc(OC)cc3c2=O)cc1"
data_value = 6


a = O=C(O)c1ccc(-n2c(/C=C/c3cccc([N+](=O)[O-])c3)nc3cc(Cl)ccc3c2=O)cc1
b = CCCc1ccc2nc(/C=C/c3cccc([N+](=O)[O-])c3)n(-c3ccc(C(=O)O)cc3)c(=O)c2c1
c = COc1ccc2nc(/C=C/c3ccc([N+](=O)[O-])cc3)n(-c3ccc(C(=O)O)cc3)c(=O)c2c1
Order the records by Ratio IC50, with each subsequent value no larger than the one before. Provide the ranking by listing each label in its place in the requested order.
c, b, a

###

Molecular target: Ionotropic glutamate receptor NMDA 1/2D (Rattus norvegicus, UniProt P35439+Q62645)
Sequence (Q62645 whole entry, other chains not shown): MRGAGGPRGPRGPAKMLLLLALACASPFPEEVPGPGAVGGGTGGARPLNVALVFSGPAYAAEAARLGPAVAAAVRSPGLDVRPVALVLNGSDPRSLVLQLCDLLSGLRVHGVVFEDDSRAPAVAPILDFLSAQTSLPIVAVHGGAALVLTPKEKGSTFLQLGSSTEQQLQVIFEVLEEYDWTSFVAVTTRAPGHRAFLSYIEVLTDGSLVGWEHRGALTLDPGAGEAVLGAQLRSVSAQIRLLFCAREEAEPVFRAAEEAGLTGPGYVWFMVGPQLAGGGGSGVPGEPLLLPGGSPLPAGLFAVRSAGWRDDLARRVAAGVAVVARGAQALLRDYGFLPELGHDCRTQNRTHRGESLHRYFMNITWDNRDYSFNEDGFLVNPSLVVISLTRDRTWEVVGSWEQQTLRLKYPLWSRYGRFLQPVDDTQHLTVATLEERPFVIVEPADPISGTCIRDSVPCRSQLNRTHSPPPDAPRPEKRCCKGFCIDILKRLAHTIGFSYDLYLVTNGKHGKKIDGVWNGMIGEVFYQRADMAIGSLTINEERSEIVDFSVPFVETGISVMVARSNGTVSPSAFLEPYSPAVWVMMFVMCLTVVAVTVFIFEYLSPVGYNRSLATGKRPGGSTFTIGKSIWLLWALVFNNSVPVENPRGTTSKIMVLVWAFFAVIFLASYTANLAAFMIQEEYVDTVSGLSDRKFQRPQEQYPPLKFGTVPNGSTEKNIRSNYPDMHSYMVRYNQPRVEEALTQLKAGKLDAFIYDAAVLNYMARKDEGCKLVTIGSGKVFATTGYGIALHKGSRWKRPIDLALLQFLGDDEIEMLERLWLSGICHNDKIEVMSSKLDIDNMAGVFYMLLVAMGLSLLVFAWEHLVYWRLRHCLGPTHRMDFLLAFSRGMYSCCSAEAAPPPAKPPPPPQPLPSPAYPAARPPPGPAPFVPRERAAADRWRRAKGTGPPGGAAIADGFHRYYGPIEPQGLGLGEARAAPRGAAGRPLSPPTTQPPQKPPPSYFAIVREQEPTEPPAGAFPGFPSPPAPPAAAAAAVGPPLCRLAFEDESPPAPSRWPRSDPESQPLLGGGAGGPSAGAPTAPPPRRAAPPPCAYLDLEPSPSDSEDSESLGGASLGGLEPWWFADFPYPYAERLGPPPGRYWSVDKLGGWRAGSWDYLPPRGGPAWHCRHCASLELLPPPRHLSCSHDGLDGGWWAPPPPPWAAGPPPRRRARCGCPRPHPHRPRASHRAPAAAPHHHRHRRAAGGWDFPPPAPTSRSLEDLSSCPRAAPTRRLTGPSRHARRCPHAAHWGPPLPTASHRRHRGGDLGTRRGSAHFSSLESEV
Experiment: Antagonist activity at rat recombinant NR1-NR2D receptor expressed in Xenopus oocytes at holding potential of -40mV by two-electrode voltage-clamp electrophysiology
measured_quantity: IC50 (µM)

[[record]]
query_smiles = "O=C(O)c1ccc(-n2c(/C=C/c3ccc(OC(F)F)cc3)nc3ccccc3c2=O)cc1"
system_tested = "Ionotropic glutamate receptor NMDA 1/2D (Rattus norvegicus, UniProt P35439+Q62645)"
unit = "µM"
data_value = 22

[[record]]
query_smiles = "Cc1ccccc1-n1c(/C=C/c2cccnc2)nc2ccc(I)cc2c1=O"
system_tested = "Ionotropic glutamate receptor NMDA 1/2D (Rattus norvegicus, UniProt P35439+Q62645)"
unit = "µM"
data_value = 25

[[record]]
query_smiles = "COc1ccc(/C=C/c2nc3ccccc3c(=O)n2-c2ccc(C(=O)O)cc2)cc1"
system_tested = "Ionotropic glutamate receptor NMDA 1/2D (Rattus norvegicus, UniProt P35439+Q62645)"
unit = "µM"
data_value = 31

